src = patent US20250066490A1

# target: T1, human CD70 expressed on the cell surface of tumor cell lines (human, UniProt P32970 1-193)
# T1 construct: whole, on cells
# T1 sequence (looked up): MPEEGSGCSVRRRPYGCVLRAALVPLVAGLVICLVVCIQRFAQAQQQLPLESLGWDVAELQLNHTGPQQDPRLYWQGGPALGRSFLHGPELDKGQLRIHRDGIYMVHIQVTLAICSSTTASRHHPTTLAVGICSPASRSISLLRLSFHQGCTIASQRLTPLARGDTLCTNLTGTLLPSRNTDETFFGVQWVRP
# procedure-text: flow cytometry on 786-O cells
pEC50: −log10 of the molar value.
outcome-measure: pEC50

>>> data_value("69A7 (parent antibody), full IgG (antibody, V domains shown, also called parent antibody 69A7) VH: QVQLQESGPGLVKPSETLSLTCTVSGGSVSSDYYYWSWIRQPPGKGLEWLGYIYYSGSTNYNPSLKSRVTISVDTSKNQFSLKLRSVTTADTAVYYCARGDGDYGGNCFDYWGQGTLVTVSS VL: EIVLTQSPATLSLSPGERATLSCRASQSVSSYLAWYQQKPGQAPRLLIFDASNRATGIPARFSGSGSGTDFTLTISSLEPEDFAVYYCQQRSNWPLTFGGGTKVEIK")
8.19
>>> data_value("2A4P0L1, full IgG (antibody, V domains shown) VH: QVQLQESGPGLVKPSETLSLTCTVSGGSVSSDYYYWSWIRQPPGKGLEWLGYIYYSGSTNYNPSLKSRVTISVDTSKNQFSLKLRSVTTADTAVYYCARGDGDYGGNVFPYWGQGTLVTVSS VL: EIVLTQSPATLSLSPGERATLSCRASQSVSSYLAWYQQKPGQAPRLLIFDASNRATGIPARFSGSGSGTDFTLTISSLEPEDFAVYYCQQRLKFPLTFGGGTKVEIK")
8.53
>>> data_value("2E7, full IgG (antibody, V domains shown) VH: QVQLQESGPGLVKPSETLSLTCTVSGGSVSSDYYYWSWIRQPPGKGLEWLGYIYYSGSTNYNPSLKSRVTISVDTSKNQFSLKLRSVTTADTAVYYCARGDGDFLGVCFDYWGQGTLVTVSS VL: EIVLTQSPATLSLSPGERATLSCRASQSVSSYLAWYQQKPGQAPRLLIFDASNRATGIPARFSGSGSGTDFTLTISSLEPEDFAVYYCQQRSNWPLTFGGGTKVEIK")
8.57
